- Test system: DLD1
- TEST_DESCRIPTION: cell viability (CellTiter-Glo) relative to plate median (fraction of plate median); higher = more viable cells
- CONDITION: 5 µM; treatment time 24 h; reporter: 7TFP
Here, each record is paired with measured cell viability data.

MOLECULE	cell viability
NC1(C(=O)O)CCCC1	0.95
COC(=O)C[C@H]1C2(C)CC34OC5(C)O[C@@]6([C@H](OC)C(OC(=O)C(C)C)[C@]7(C)C(/C(=C(/OC)C(C)C)C(=O)O[C@H]7c7ccoc7)[C@@]6(O5)[C@H](OC)[C@@]3(OC)C2OC(C)=O)[C@]14C (some centres undefined)	1.02
O=C(OOC(=O)c1ccccc1)c1ccccc1	1.01
CC1=CC(=O)[C@H]2C(C)(C)CCC[C@]2(C)[C@@]1(O)CCc1ccoc1	0.976
Nc1nc2[nH]cnc2c(=S)[nH]1	0.706
CC[C@H]1OC(=O)[C@H](C)C(=O)[C@H](C)[C@@H](O[C@@H]2O[C@H](C)C[C@H](N(C)C)[C@H]2O)[C@](C)(OC)C[C@@H](C)C(=O)[C@H](C)[C@H]2N(CCCCn3cnc(-c4cccnc4)c3)C(=O)O[C@]12C	0.997
NC(CO)C(=O)NNCc1ccc(O)c(O)c1O (centres undefined)	1.03
CCCCCCCCCCCC[C@@H](C(=O)O)[C@H](C)C(=O)O	1
CN1CCOC(c2ccccc2)c2ccccc2C1 (centres undefined)	0.915
